Read-out: urokinase plasminogen activator (uPA), PLAU (gene 5328)
Test: BSK_KF3CT_uPA: BioMAP Diversity Plus: KF3CT Assay for urokinase plasminogen activator (uPA) Biomarker Activity (AID 2283075)
Conditions: primary human keratinocytes with fibroblasts; actives raise or lower the signal
Activity calls are given as the source filed them. Rule for the calls: active = hit-call score of the fitted dose curve at least 0.9, where 1 is the maximum; inactive = score below 0.9.
Pick from active, inactive when you respond.

Answered cases to consult:
[
  {
    "Smiles String": "CN(C)CCOC(c1ccccc1)c1ccccc1",
    "Class Label": "inactive"
  },
  {
    "Smiles String": "Oc1cc2ccccc2cc1O",
    "Class Label": "inactive"
  },
  {
    "Smiles String": "COCN(COC)c1nc(N(COC)COC)nc(N(COC)COC)n1",
    "Class Label": "inactive"
  },
  {
    "Smiles String": "CCCCCCCCCCCCCCCCCC[N+](C)(C)Cc1ccccc1",
    "Class Label": "active"
  }
]

Record lookup: outcome of this test for N=C(N)c1ccc(OCCCCCOc2ccc(C(=N)N)cc2)cc1 ?
inactive

Record lookup: outcome of this test for O=C1OC2(c3ccccc31)c1cc(I)c(O)c(I)c1Oc1c2cc(I)c(O)c1I ?
active

Record lookup: outcome of this test for CCCCCc1ccc(O)cc1 ?
active

Record lookup: outcome of this test for O=P(O)(O)CCC(F)(F)C(F)(F)C(F)(F)C(F)(F)C(F)(F)C(F)(F)F ?
inactive

Record lookup: outcome of this test for O=C(CC(=O)C(F)(F)C(F)(F)C(F)(F)F)c1cccs1 ?
inactive

Record lookup: outcome of this test for CCCCCCCCCCCCOS(=O)(=O)O ?
active

Record lookup: outcome of this test for O=P(O)(O)CCC(F)(F)C(F)(F)C(F)(F)C(F)(F)C(F)(F)C(F)(F)C(F)(F)C(F)(F)F ?
inactive

Record lookup: outcome of this test for CN(C)c1ccc(C(=C2C=CC(=[N+](C)C)C=C2)c2ccccc2)cc1 ?
active

Record lookup: outcome of this test for CCCCCCCCCCCC ?
active

Record lookup: outcome of this test for O=C(c1ccccc1)c1ccccc1 ?
inactive

###

Assay: ATG_CRE_CIS: Attagene CIS-FACTORIAL HepG2 Assay for human cAMP Responsive Element (CRE) binding protein 3 (AID 2282926)
Conditions: HepG2 CRE cis-reporter, Attagene multiplexed mRNA; actives raise or lower the signal
Calls of active or inactive are those of the source. The calls were made as follows: active = hit-call score of the fitted dose curve at least 0.9, where 1 is the maximum; inactive = score below 0.9.
Pick from active, inactive when you respond.

[
  {
    "Smiles String": "C=CC(=O)OCCN(CC)CC",
    "Class Label": "active"
  },
  {
    "Smiles String": "C=COC(=O)C(C)(C)CCCCCC",
    "Class Label": "inactive"
  },
  {
    "Smiles String": "NS(=O)(=O)O",
    "Class Label": "inactive"
  },
  {
    "Smiles String": "O=S(=O)(O)c1ccc2cc(O)ccc2c1",
    "Class Label": "inactive"
  },
  {
    "Smiles String": "C=Cc1ccc(O)c(OC)c1",
    "Class Label": "inactive"
  },
  {
    "Smiles String": "CCCCCCOC(=O)c1ccc(O)cc1",
    "Class Label": "active"
  },
  {
    "Smiles String": "CCCCCCCCC(C)=O",
    "Class Label": "inactive"
  }
]

Okay, now this molecule:
Record lookup: outcome of this test for NNC(=O)CCCCC(=O)NN ?
inactive

Data origin, for the record: PubChem BioAssay (EPA / NIEHS)
